B1: INTS4 (parent)
chain: IRLVDDAFGKICHMVSDGSWVVRV

Variants of: B1
method: protein stability index of a GFP-peptide fusion (GPS, HEK-293T) (PSI 1-6); higher = more stable;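 note: lentivirally expressed fusions sorted by FACS into six bins by GFP to DsRed ratio, PSI derived from sequencing read proportions per bin multiplied by bin number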
stated-conditions: c terminus: a fixed tail appended
Measured protein stability index, listed per entry for reference.
metric: protein stability index

{"variant-label": "R23G", "metric": "protein stability index", "reported-value": 2.32}
{"variant-label": "F8G", "metric": "protein stability index", "reported-value": 1.6}
{"variant-label": "S16E", "metric": "protein stability index", "reported-value": 2.31}
{"variant-label": "V15F", "metric": "protein stability index", "reported-value": 2.51}
{"variant-label": "G9R", "metric": "protein stability index", "reported-value": 2.17}
